This collection of values is drawn from patent US20130109682A1.

- target_or_system: PIM2 (Homo sapiens)
- Sequence (Q9P1W9 whole entry): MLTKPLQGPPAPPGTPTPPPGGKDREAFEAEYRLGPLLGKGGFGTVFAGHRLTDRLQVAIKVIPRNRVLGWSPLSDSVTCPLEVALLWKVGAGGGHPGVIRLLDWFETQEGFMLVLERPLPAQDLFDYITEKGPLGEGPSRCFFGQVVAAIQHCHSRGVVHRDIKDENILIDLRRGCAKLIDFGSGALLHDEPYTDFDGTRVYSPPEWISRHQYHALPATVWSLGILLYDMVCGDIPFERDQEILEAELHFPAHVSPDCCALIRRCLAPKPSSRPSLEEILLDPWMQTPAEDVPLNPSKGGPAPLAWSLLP
- method_summary: KinaseGlo Pim2 ATP depletion assay
- Format: biochemical
experimental_readout: pIC50
API: returns pIC50 as number; meaning -log10 of concentration in mol/L.

Solved cases (6 shown):
Give its pIC50 value. Item: C=C1[C@H](O)C[C@H](c2ccncc2NC(=O)c2ccc(F)c(-c3c(F)cccc3F)n2)OC12CC2
6.81

Give its pIC50 value. Item: O=C(Nc1cnccc1C1OCCCO1)c1ccc(F)c(-c2c(F)cccc2F)n1
6.44

Give its pIC50 value. Item: C=C[C@H]1OC(c2ccncc2NC(=O)c2ccc(F)c(-c3c(F)cccc3F)n2)=C[C@@H](O)[C@@H]1O
9.00

Give its pIC50 value. Item: CCC[C@H]1O[C@@H](c2ccncc2NC(=O)c2nc(-c3c(F)cccc3F)ncc2N)C[C@@H](O)[C@@H]1O
8.03

Give its pIC50 value. Item: CC[C@]1(O)[C@H](O)C[C@H](c2ccncc2NC(=O)c2nc(-c3c(F)cccc3F)c(F)cc2N)O[C@@H]1C
9.00

Give its pIC50 value. Item: O=C(Nc1cnccc1[C@@H]1C[C@@H](O)[C@H](O)[C@@H](CO)O1)c1ccc(F)c(-c2c(F)cccc2F)n1
5.60

Shift focus to the following entry.
Give its pIC50 value. Item: N#C[C@H]1O[C@@H](c2ccncc2NC(=O)c2ccc(F)c(-c3c(F)cccc3F)n2)C[C@@H](O)[C@@H]1O
7.92
